# system: human FASN (Homo sapiens, UniProt P49327)
# Construct: endogenous in cells; host or cells: BT474 cells; endogenous enzyme purified by ammonium sulfate cuts and Sephacryl S-300 gel filtration, about 85% pure
# Sequence (P49327 whole entry): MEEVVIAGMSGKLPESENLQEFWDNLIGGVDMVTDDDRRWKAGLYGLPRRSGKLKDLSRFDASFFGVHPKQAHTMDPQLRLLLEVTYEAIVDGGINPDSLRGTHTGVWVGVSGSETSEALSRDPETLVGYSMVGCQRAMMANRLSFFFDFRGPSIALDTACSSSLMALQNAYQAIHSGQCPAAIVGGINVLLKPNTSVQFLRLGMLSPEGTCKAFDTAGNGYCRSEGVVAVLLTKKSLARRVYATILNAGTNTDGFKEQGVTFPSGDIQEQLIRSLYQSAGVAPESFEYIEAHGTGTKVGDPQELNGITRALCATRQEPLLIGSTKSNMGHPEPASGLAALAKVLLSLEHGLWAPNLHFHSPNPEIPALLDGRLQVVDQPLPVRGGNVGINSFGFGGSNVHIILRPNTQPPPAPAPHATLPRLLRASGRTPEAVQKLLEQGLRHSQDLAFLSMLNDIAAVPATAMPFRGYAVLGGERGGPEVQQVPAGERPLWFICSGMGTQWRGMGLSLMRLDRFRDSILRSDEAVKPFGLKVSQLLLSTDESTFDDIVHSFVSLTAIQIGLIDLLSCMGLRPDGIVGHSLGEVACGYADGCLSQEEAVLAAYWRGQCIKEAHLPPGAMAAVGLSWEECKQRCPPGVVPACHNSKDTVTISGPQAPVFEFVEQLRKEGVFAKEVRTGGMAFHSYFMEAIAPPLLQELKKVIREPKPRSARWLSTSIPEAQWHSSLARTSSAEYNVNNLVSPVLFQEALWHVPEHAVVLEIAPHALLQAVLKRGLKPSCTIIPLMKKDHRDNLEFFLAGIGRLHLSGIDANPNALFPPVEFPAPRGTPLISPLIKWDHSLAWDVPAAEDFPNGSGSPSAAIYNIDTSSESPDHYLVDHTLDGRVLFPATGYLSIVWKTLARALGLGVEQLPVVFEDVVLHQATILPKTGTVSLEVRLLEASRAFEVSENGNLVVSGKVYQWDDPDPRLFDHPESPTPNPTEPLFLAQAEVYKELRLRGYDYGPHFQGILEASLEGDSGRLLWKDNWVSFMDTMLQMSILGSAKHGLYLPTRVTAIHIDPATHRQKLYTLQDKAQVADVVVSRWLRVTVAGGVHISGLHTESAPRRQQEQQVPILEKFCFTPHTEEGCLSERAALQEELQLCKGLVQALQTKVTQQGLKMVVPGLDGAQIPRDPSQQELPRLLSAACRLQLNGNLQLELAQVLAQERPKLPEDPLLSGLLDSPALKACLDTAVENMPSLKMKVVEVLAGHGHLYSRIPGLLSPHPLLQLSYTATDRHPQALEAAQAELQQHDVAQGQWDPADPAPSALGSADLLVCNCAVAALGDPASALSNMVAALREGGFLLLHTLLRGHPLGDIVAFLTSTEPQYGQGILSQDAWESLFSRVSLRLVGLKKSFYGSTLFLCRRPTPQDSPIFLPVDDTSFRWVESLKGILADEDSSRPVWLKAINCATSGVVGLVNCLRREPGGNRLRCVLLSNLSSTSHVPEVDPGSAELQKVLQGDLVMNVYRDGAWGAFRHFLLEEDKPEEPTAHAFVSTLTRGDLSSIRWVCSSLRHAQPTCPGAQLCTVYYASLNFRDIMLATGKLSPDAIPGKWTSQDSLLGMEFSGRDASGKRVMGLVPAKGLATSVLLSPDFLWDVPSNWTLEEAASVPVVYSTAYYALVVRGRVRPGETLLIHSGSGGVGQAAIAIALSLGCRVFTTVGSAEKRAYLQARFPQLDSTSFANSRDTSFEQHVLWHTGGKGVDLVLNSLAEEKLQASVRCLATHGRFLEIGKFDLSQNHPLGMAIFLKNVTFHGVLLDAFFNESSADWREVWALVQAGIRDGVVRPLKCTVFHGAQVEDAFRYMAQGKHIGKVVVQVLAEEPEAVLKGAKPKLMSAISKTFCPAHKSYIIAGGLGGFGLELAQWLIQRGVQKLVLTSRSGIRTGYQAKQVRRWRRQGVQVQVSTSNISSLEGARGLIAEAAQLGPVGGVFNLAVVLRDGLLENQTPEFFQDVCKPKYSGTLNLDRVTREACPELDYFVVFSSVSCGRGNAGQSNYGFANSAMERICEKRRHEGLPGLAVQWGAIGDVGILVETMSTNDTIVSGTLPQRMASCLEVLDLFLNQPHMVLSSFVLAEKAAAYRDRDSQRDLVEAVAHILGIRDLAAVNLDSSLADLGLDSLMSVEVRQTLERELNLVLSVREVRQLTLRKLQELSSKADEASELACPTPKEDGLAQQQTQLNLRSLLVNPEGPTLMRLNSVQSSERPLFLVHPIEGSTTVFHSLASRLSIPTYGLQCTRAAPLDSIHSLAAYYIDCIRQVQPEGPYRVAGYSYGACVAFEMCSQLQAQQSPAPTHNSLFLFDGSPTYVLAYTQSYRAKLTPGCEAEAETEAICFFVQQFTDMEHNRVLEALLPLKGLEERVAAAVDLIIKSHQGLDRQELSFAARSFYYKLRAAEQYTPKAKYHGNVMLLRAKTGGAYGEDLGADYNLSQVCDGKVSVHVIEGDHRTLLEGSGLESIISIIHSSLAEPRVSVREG
# assay overview: FASN activity assay, 2-[14C] malonyl CoA incorporation into lipids by purified enzyme
# Type: biochemical
readout label: IC50 (µM)

> print(dat)
                                   molecule  readout.label  value
1  Cc1sc2ncnc(NC3CCN(Cc4ccccc4)C3)c2c1C (racemic)           IC50   3.71

* * *

# assay overview: in vivo
# test conditions: MMTV-Neu, mouse, ip, 15 mg/kg, T1/2 plasma, 15 mg/kg IP, n=3
readout label: half-life (min)

> print(dat)
                                   compound  unit.annotation  value
1  Cc1sc2ncnc(NC3CCN(Cc4ccccc4)C3)c2c1C (racemic)              min   9.81

* * *

# System: FASN activity in HepG2 cells
# assay overview: [3H] glucose and acetate incorporation into lipids in HepG2 cells
# Format: cell-based
# test conditions: Homo sapiens, HepG2, read-out: IC50, incorporation of tritiated glucose into lipids
readout label: IC50 (nM)

> print(dat)
                                   molecule                        system  value
1  Cc1sc2ncnc(NC3CCN(Cc4ccccc4)C3)c2c1C (racemic)  FASN activity in HepG2 cells    213

* * *

# assay overview: in vivo
# test conditions: MMTV-Neu, mouse, ip, 15 mg/kg, T1/2 liver, 15 mg/kg IP, n=3
readout label: half-life (min)

> print(dat)
                                   compound  readout.label  value
1  Cc1sc2ncnc(NC3CCN(Cc4ccccc4)C3)c2c1C (racemic)      half-life   9.84

* * *

# system: human FASN (Homo sapiens)
# Construct: endogenous in cells; host or cells: BT474 cells; endogenous enzyme purified by ammonium sulfate cuts and Sephacryl S-300 gel filtration, about 85% pure
# assay overview: FASN activity assay, 2-[14C] malonyl CoA incorporation into lipids by purified enzyme
# Type: biochemical
# test conditions: FIG. 2E; read-out: IC50, native human FASN (purified)
readout label: IC50 (µM)

> print(dat)
                                   compound                     system  readout.label  value
1  Cc1sc2ncnc(NC3CCN(Cc4ccccc4)C3)c2c1C (racemic)  human FASN (Homo sapiens)           IC50  0.046

* * *

# assay overview: in vivo
# test conditions: MMTV-Neu, mouse, ip, 15 mg/kg, T1/2 kidney, 15 mg/kg IP, n=3
readout label: half-life (min)

> print(dat)
                                   molecule  unit.annotation  value
1  Cc1sc2ncnc(NC3CCN(Cc4ccccc4)C3)c2c1C (racemic)              min    9.9

* * *

# System: FASN activity in HepG2 cells
# assay overview: [3H] glucose and acetate incorporation into lipids in HepG2 cells
# Type: cell-based
# test conditions: Homo sapiens, HepG2, read-out: EC50, blockade of glucose incorporation into total lipids
pEC50: −log10 of the molar value.
readout label: pEC50

> print(dat)
                                   compound                        system  value
1  Cc1sc2ncnc(NC3CCN(Cc4ccccc4)C3)c2c1C (racemic)  FASN activity in HepG2 cells   6.67
